Biological target: T1, human IGSF11 (VSIG3) expressed on cells (human, UniProt Q5DX21 23-431)
T1 sequence: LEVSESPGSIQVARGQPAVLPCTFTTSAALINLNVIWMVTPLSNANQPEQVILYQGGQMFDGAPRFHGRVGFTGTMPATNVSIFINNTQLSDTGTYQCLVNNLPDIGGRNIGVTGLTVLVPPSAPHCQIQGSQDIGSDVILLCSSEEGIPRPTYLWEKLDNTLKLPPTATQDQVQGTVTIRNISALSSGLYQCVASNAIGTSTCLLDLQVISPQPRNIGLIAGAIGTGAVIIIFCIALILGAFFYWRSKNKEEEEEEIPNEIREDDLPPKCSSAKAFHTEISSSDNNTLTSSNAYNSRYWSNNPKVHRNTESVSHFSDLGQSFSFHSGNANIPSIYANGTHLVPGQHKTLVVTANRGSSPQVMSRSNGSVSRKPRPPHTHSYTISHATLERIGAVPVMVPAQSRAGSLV
Assay: IgG1 FACS HEK-OE
pEC50: −log10 of the molar value.
parameter-measured: pEC50

Please review the entries below; each comes with its answer.
1. B-001 (chain-swapped IgG1) (antibody, V domains shown, human IgG1 format; also called B1) VH: EVQLLESGGGLIQPGGSLRLSCAVSGFTVSSNYMSWVRQAPGKGLEWVSVIYSGGSTYYADSVKGRFTISRDNSKNTLYLQMNSLRAEDTAVYYCARGNPYYYGDLQVNFDYWGQGTLVTVSS VL: QAVVTQEPSLTVSPGGTVTLTCASSTGAVTSAYYPNWFQQKPGQAPRALIYSTSNKHSWTPARFSGSLLGGKAALTLSGVQPEDEADYYCLLYYGGAWVFGGGTKLTVL
7.30 to 8.00
2. A-013 (IgG1 format) (antibody, V domains shown, human IgG1 format) VH: EVQLVESGGGLIQPGGSLRLSCAASGFTVSSNYMSWVRQAPGKGLEWVSVIYSGGSTYYADSVKGRFTISRDNSKNTLYLQMNSLRAEDTAVYYCARGNPYYYGDLQVNFDYWGQGTLVTVSS VL: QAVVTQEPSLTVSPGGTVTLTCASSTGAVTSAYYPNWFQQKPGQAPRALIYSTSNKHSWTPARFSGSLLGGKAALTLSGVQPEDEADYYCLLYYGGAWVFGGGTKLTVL
7.30 to 8.00
3. A-011 (IgG1 format) (antibody, V domains shown, human IgG1 format) VH: QVQLVESGGGVVQPGRSLRLSCAASGFTFSSYAMHWVRQAPGKGLEWVAVISYDGSNKYYADSVKGRFTISRDNSKNTLYLQMNSLRAEDTAVYYCAEGGALNYYGMDVWGQGTTVTVSS VL: SSELTQDPGVSVALGQTVRITCQGDSLRHFYATWYQQKPGQAPILVIYGKNNRPSGIPDRFSGSSSEDTASLTITGAQAEDEADYYCQSRDPRNNHLIFGGGTKLIVL
< 7.30

Please give the measured pEC50 for this binder: A-027 (IgG1 format) (antibody, V domains shown, human IgG1 format) VH: QVQLVQSGAEVKKPGSSVKVSCKASGGTFSSYAISWVRQAPGQGLEWMGGIIPIFGTANYAQKFQGRVTITADKSTSTAYMELSSLRSEDTAVYYCARARGSTWGYFDYWGQGTLVTVSS VL: EIVLTQSPASLSLSPGERVTLSCRASQSVSNYLAWYQQKPGQAPRLLIYDASNRATGIPARFSGSGSGTDFTLTISSLEPEDFAVYYCQQRDNWPLTFGGGTKVEIK
< 7.30

Please give the measured pEC50 for this binder: B-002 (chain-swapped IgG1) (antibody, V domains shown, human IgG1 format; also called B2) VH: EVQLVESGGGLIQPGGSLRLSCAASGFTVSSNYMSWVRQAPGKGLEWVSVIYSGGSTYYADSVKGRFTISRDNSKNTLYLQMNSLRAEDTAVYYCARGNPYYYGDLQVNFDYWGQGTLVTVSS VL: QAVVTQEPSLTVSPGGTVTLTCASSTGAVTSGYYPNWFQQKPGQAPRALIYSTSNKHSWTPARFSGSLLGGKAALTLSGVQPEDEAEYYCLLYYGGAWVFGGGTKLTVL
7.30 to 8.00

Where these numbers come from: patent US20220372138A1
